Field: Meas. ratio (noFAD/FAD). Provide a value for each of the binders that follow.
TESTED ON: Diaphorase
ASSAY NOTES: peptide array, 1 uM diaphorase, measured binding without FAD / with FAD
Quick one: just the number, no unit, thanks!

// Meas. ratio (noFAD/FAD) lookup, key: KEDKVFGFRFDGS
0.7

# iterate: YWRFYANWAQLFG
2.56

# iterate: WRVQAWRPNKVEG
2.43

# iterate: FYNFGYQDLEDGS
0.75
